Please go through the items and note down their CC50.
assay info: in vitro
conditions: dog
One number for each entry, in µg/mL.

The following molecules have reported results that may help.
COc1cc(C2Oc3cc([C@H]4Oc5cc(O)cc(O)c5C(=O)[C@@H]4O)ccc3OC2CO)ccc1O (stereo partly shown) [Silybin]; 9480
CC[C@H](CC[C@@H](C)[C@H]1CC[C@H]2[C@@H]3CC=C4C[C@@H](O[C@@H]5O[C@H](CO)[C@@H](O)[C@H](O)[C@H]5O)CC[C@]4(C)[C@H]3CC[C@]12C)C(C)C [β-sitosterol-O-glucoside]; 1750
O=C1c2cccc(O)c2C(=O)c2c(O)cc(CO)cc21 [Aloe emodin]; 2280
C=C(C)[C@@H]1CC[C@]2(C)CC[C@]3(C)[C@H](CC[C@@H]4[C@@]5(C)CC[C@H](O)C(C)(C)[C@@H]5CC[C@]43C)[C@@H]12 [Lupeol]; 560
O=C[C@H](O)[C@@H](O)[C@@H](O)[C@H](O)C(=O)O [D-Galacturonic acid, Galacturonic acid]; 9610
O=c1c(O[C@@H]2O[C@H](CO)[C@@H](O)[C@H](O)[C@H]2O)c(-c2ccc(O)c(O)c2)oc2cc(O)cc(O)c12 [Isoquercitrin]; 710
O=C[C@H](O)[C@@H](O)[C@H](O)[C@H](O)C(=O)O [D-Glucuronic acid, Glucuronic acid]; 10300

Reported CC50, molecule CC[C@H](CC[C@@H](C)[C@H]1CC[C@H]2[C@@H]3CC=C4C[C@@H](O)CC[C@]4(C)[C@H]3CC[C@]12C)C(C)C [β-sitosterol] : ____
9900

Sourced from paper PMC9964242
